The measurements presented in this section are drawn from patent US20240158446A1.

tested on: human lung cancer strain NCI-H441; experiment: cells; conditions: NCI-H441, 96 h, read-out: NCI-H441 IC50 (nM), NCI-H441 cell proliferation, 4 days, CellTiter-Glo;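 further: cell proliferation inhibition after four days measured by CellTiter-Glo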
Where a SMILES comes first, the peptide text is derived from it. Bridges are numbered along the chain shown (N, C = ends). [ ]: non-standard residue; d: D form. The star is where a group is joined. hPhe(3-Cl-4-CF3) = N[C@@H](CCc1ccc(C(F)(F)F)c(Cl)c1)C(=O)O; NPrPhe(4-CF3) = CCCN[C@@H](Cc1ccc(C(F)(F)F)cc1)C(=O)O; NMeGly(cPent) = CN[C@H](C(=O)O)C1CCCC1; NMeD = CN[C@@H](CC(=O)O)C(=O)O; Ac4c(3-oxa) = NC1(C(=O)O)COC1; NMeL = CN[C@@H](CC(C)C)C(=O)O; Morpholide = C1CN(*)CCO1; Sar = CNCC(=O)O
Examples of compounds with documented IC50 follow.
Note: unit nM is implicit; provide only the numeric part.

Check out these entries, answers already filled in.
Entry CCCC[C@H]1C(=O)N[C@@H]([C@@H](C)CC)C(=O)N(C)CC(=O)N(C)[C@H]2C/C=C\CCN(C2=O)[C@@H](Cc2ccc(C(F)(F)F)cc2)C(=O)N(C)CC(=O)N[C@@H](CCc2ccc(C(F)(F)F)c(Cl)c2)C(=O)N2C[C@H](OCC)C[C@H]2C(=O)NC2(CC(C)(C)C2)C(=O)N(C)[C@@H](C2CCCC2)C(=O)N(C)[C@H](C(=O)N(C)C)CC(=O)N1C has what IC50?
3.4

Entry CCCOC[C@H]1C(=O)N[C@@H]([C@@H](C)CC)C(=O)N(C)CC(=O)N(C)[C@H]2C/C=C\CCN(C2=O)[C@@H](Cc2ccc(C(F)(F)F)cc2)C(=O)N(C)CC(=O)N[C@@H](CCc2ccc(C(F)(F)F)c(OC)c2)C(=O)N2C[C@@H](C)C[C@H]2C(=O)NC2(CC(C)(C)C2)C(=O)N(C)[C@@H](C2CCCC2)C(=O)N(C)[C@H](C(=O)N(C)C)CC(=O)N1C has what IC50?
14.2

Now examine the next entry.
Entry CCCN1C(=O)CN(C)C(=O)CN(C)C(=O)[C@H]([C@@H](C)CC)NC(=O)[C@H](CC(C)C)N(C)C(=O)C[C@@H](C(=O)N2CCOCC2)N(C)C(=O)[C@H](C2CCCC2)N(C)C(=O)C2(COC2)NC(=O)[C@@H]2CCCN2C(=O)[C@H](CCc2ccc(C(F)(F)F)c(Cl)c2)NC(=O)CN(C)C(=O)[C@@H]1Cc1ccc(C(F)(F)F)cc1 [PP1922] ([NMeL]I[Sar][Sar][NPrPhe(4-CF3)][Sar][hPhe(3-Cl-4-CF3)]P[Ac4c(3-oxa)][NMeGly(cPent)][NMeD]-Morpholide; lactam N-11) has what IC50?
44.1
